Cited source for all entries: the nanobody polyreactivity screen of Harvey et al. (2022)

METHOD NOTES: yeast display, Sf9 membrane polyspecificity reagent, FACS + sequencing; frameworks hold sequencing errors
EXPERIMENTAL READOUT: polyreactivity (PSR sort gate)

[[record]]
seq_string = "QVQLVESGGGLVQAGGSLRLSCAASGRIFCKYAMGWYIQAPGKERELVAAISRSGASTYYADSVKGRFTISRDNAKNTVYLQMNSLKPEDTAVYYCAAVPPYNYRFRVYYWGQGTQVTVSS"
experimental_readout = "polyreactivity (PSR sort gate)"
experimental_value = "high polyreactivity"

[[record]]
seq_string = "QVQLVESGGGLVQAGGSLRLSCAASGFTFGLNAMGWYRQAPGKERELVAGISRNGGRTYYADSVKGRFTISRDNAKNTVYLQMNSLKPDDTAVYYCNKVVSTYWTKSRVQWRYSRYDYWGQGTQVTVSS"
experimental_readout = "polyreactivity (PSR sort gate)"
experimental_value = "high polyreactivity"


====

METHOD NOTES: yeast display, Sf9 membrane polyspecificity reagent, FACS + sequencing; frameworks hold sequencing errors
EXPERIMENTAL READOUT: polyreactivity (PSR sort gate)

[[record]]
seq_string = "QVQLVESGGGLVQAGGSLRLSCAASGSILSPNAMGWYRQAPGKERELVADISSVGSTYYADSVKGRFTISRDNAKNTVYLQMNSLKPEDTAVYYCAAEFRATDGIGYDYWGQGTHVTVSS"
experimental_readout = "polyreactivity (PSR sort gate)"
experimental_value = "low polyreactivity"

[[record]]
seq_string = "QVQLVESGGGLVQAGGSLRLSCAASGFTFYANTMGWYRQAPGKERELVAAISKSGGRTYYADSVKGRFTISRDNAKNTVYLQMNSLKPEDTAVYYCAASSGYKRNYWGQGTQVTVSS"
experimental_readout = "polyreactivity (PSR sort gate)"
experimental_value = "high polyreactivity"

[[record]]
seq_string = "QVQLVESGGGLVQAGGSLRLSCAASGFNFDENAMGWYRQAPGKEREFYAAISISGSSTYADSVKGRFTISRDNAKNTVYLQMNCLKPEDTAVYFCAASYTTEYTGDGHSGVGDGDYWGQGTQVTVSS"
experimental_readout = "polyreactivity (PSR sort gate)"
experimental_value = "low polyreactivity"

[[record]]
seq_string = "QVQLVESGGGLVQAGGSLRLSCAASGSTFEYNAMGWYRQAPGKERELVASSTNYADSVKGRFTISRDNAKNTVYLQMNSLKPEDTAVYYCAREQGVNRNHDYRGQGTQVTVSS"
experimental_readout = "polyreactivity (PSR sort gate)"
experimental_value = "low polyreactivity"

[[record]]
seq_string = "QVQLVESGGGLVQAGGSLRLSCGASGFTFYSYAMGWYRPARGKARELVATITKSGGNTYYADSVKGRFTISRDNAKNTVYLQMTSLKPVDTAVYYCAAATKVGRYKRKTVSYYYWCQGTQVTVSS"
experimental_readout = "polyreactivity (PSR sort gate)"
experimental_value = "high polyreactivity"


For the sequence shown here, QVQLVESGGGLVQAGGSLRLSCAASGFIFYSYAMRWYRQDPGQERELVAAISTSGGSSYYADSVKGRFTMSRDNAKNTVYLQMNSLKPEDTAVYYCATLSAFYPFAYDYWGQGTQVTVSS , give the reported polyreactivity (PSR sort gate).
high polyreactivity

For the sequence shown here, QVQLVESGGGLVQAGGSLRLSCAASGRTIYRYDMGWYRQSPGKERKFVAPISWSGGRTYYADSVKGRFTIARDNAKNTVYLQMNSLKPEDTAVYYCAAEYPWSVGYWRYGLDDYWGQGTQVSVSS , give the reported polyreactivity (PSR sort gate).
high polyreactivity

For the sequence shown here, QVQHVESGGGLVQAGGSLRLSCAASGRTFQYNTMGWYRQAPGKERELVAAISWGGGSTYYADSVKGRFTISRDNAKNTVYLQMNSLKPEDTAVYYCAATHYRGKGYYYWGQGTQLTVSS , give the reported polyreactivity (PSR sort gate).
low polyreactivity
